Test system: SKOV3
Experiment: Primary qHTS to identify gynecologic anti-cancer compounds using libraries of approved drugs and bioactive compounds (AID 1345084); also: nearly all actives have a fitted effect of over 55% in size
Conditions: Gynecologic cancer cell panel viability, ATPlite luminescence, 48 h; series mostly up to 57.5 µM
Inconclusive results are not listed. The source made the active and inactive calls. Calls follow the shape of the dose curve; as a rule, active = well fitted cell-killing curve with a large enough effect; inconclusive = small, poorly fitted or top-dose-only effect, or effect the other way; inactive = flat fitted curve, though single readings scatter.
Possible outcomes: 1 (active), -1 (inactive)

> print(dat)
                              record.smiles  cat
1  CC(=O)O[C@H]1CC[C@H]2[C@@H]3CC[C@H]4CC(=O)C=C(C)[C@]4(C)[C@H]3CC[C@]12C   -1
2  CC(=O)O[C@@H]1[C@H]2CC[C@H]3[C@@](C)(O)[C@@H]4C[C@H](O)C(C)(C)[C@@]4(O)[C@H](O)C[C@@]13C[C@@]2(C)O   -1
3  Cc1ccc(Cn2nc(C(=O)N[C@@H]3C(C)(C)[C@@H]4CC[C@@]3(C)C4)cc2-c2ccc(Cl)c(C)c2)cc1   -1
4  C=C(C)[C@@]12O[C@@H]1[C@@]1(C)C(=CC2=O)CC[C@@H](OC(C)=O)[C@@H]1C    1

Reference source for all entries: PubChem BioAssay (NCATS)
